Target: P2X7 (Homo sapiens)
Sequence (Q99572 1-595): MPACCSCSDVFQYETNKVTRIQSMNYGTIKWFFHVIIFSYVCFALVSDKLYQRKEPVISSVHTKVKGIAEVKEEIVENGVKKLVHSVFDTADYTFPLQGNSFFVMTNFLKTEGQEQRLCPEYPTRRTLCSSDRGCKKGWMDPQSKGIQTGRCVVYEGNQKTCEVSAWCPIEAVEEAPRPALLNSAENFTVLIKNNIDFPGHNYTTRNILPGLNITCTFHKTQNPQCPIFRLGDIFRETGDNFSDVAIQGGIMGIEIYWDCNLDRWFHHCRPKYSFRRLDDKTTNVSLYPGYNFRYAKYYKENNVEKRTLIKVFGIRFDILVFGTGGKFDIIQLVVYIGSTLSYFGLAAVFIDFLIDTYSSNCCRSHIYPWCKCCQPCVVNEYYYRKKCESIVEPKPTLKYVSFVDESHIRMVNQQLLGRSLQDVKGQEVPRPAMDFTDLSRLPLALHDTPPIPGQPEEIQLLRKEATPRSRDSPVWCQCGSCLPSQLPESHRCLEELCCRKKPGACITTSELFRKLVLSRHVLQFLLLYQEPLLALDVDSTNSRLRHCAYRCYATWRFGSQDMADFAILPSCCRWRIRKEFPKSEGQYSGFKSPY
Assay: Plate-based flow cytometric YO-PRO-1 dye uptake compound screen in RPMI8226 cells
Conditions: RPMI8226 cells, plate-based screen
valueType: EC50

# get_value(readout='EC50', item= Nc1ncnc2c1ncn2[C@@H]1O[C@H](COP(=O)(O)OP(=O)(O)OP(=O)(O)O)[C@@H](O)[C@H]1O [ATP, adenosine 5′-triphosphate] )
~250 µM
